- Target Desc: Caspase 4 (Homo sapiens, UniProt P49662)
- Sequence (P49662 81-377): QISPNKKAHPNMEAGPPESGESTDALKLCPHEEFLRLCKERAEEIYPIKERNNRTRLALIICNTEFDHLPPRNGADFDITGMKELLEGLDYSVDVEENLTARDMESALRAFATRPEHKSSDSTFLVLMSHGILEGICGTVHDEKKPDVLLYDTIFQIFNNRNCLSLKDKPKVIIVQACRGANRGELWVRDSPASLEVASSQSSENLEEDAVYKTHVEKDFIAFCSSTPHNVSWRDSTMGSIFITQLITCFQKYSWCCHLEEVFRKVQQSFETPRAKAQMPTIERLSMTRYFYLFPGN
Residues, ends and D or L forms follow the SMILES beside them.
Quantity Measured: pIC50
For clarity, pIC50 is expressed as the negative log10 of concentration in mol/L.

Kindly indicate its recorded pIC50. Item: CC[C@H](C)[C@H](NC(C)=O)C(=O)N[C@@H](CCC(=O)O)C(=O)N[C@H](C(=O)N[C@H](C=O)CC(=O)O)[C@@H](C)O [IETD-CHO] (Ac-IETD-aldehyde)
5.67

* * *

- Target Desc: UniProt:P55212
- Sequence (P55212 24-293): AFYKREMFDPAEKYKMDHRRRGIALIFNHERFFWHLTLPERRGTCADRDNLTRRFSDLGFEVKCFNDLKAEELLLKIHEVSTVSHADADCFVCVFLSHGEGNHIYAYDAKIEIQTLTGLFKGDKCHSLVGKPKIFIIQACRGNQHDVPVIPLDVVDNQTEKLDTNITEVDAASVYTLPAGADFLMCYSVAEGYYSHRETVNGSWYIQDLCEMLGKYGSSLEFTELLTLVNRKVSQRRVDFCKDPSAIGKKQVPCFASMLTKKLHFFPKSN
Quantity Measured: IC50 (nM)
# value in nM; strip the unit string

Kindly indicate its recorded IC50. Item: CC(=O)N[C@@H](CC(=O)O)C(=O)N[C@@H](CCC(=O)O)C(=O)N[C@H](C(=O)N[C@H](C=O)CC(=O)O)C(C)C [DEVD-CHO]
12.4

* * *

- Target Desc: Cathepsin L (Homo sapiens, UniProt P07711)
- Sequence (P07711 114-333, species assumed): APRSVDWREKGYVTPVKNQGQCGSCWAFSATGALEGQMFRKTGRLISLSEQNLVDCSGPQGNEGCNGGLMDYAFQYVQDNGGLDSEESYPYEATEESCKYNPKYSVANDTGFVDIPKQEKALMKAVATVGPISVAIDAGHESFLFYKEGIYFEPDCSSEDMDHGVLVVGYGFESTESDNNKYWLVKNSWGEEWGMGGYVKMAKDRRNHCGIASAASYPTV
Quantity Measured: IC50 (µM)
# value in µM; strip the unit string

Give the observed IC50 of `CC(C)C[C@H](NC(=O)[C@H]1O[C@@H]1C(=O)O)C(=O)NCCCCN=C(N)N` for Cathepsin L (Homo sapiens, UniProt P07711).
0.0124

* * *

- Target Desc: Caspase 7 (Homo sapiens, UniProt P55210)
- Sequence (P55210 1-303): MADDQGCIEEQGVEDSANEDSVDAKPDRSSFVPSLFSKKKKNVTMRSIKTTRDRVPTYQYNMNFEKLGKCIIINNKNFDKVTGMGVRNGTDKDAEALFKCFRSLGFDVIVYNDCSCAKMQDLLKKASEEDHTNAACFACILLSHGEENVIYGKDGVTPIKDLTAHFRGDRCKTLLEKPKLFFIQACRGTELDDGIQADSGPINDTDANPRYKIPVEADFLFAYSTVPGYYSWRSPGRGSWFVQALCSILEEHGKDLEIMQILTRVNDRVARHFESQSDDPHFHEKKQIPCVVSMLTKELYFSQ
Quantity Measured: pIC50
For clarity, pIC50 is expressed as the negative log10 of concentration in mol/L.

Kindly indicate its recorded pIC50. Item: `CC(=O)N[C@@H](CC(=O)O)C(=O)N[C@@H](CCC(=O)O)C(=O)N[C@H](C(=O)N[C@H](C=O)CC(=O)O)C(C)C`
8.64

* * *

- Target Desc: Kallikrein 1 (Homo sapiens, UniProt P06870)
- Sequence (P06870 25-262, species assumed): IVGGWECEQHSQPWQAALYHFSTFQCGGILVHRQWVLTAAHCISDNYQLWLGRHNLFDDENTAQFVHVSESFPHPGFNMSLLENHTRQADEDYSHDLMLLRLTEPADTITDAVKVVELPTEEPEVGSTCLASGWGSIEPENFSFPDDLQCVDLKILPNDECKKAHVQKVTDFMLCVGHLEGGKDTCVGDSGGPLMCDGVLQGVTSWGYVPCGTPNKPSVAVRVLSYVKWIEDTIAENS
Quantity Measured: pIC50
For clarity, pIC50 is expressed as the negative log10 of concentration in mol/L.

Give the observed pIC50 of CC(=O)N[C@@H](CC(C)C)C(=O)N[C@@H](CC(C)C)C(=O)N[C@H](C=O)CCCNC(=N)N [Leupeptin] for Kallikrein 1 (Homo sapiens, UniProt P06870).
5.34

* * *

- Target Desc: Matriptase 2 (Homo sapiens)
- Sequence (Q8IU80 whole entry, species assumed): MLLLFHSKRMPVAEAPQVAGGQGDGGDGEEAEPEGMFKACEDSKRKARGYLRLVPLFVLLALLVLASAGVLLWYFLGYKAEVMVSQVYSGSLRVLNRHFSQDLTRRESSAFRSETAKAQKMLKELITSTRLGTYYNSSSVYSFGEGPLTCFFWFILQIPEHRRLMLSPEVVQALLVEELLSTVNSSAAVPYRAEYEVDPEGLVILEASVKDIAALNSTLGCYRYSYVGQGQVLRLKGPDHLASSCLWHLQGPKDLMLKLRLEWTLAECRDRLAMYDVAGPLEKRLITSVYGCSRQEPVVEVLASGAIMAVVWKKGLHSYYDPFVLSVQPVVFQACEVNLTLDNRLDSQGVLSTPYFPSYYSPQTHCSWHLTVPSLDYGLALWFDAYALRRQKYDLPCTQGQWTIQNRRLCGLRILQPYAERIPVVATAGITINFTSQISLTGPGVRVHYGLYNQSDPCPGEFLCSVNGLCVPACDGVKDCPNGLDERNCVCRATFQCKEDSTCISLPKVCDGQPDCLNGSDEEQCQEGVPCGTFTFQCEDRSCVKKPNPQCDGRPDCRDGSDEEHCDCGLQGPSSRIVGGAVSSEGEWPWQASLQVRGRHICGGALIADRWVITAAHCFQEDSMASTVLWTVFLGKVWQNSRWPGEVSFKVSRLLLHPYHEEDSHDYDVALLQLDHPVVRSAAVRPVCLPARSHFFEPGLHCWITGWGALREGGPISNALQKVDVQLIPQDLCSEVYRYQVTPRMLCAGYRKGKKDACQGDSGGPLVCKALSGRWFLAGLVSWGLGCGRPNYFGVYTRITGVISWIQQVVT
Structures can show the parent of a compound that is named as a salt.
Quantity Measured: IC50 (nM)
# value in nM; strip the unit string

Kindly indicate its recorded IC50. Item: CCOC(=O)c1ccc(OC(=O)CCCCCN=C(N)N)cc1 [Gabexate mesylate]
391

* * *

Heads up, these compounds all have pIC50 values measured for Matriptase (Homo sapiens).
For clarity, pIC50 is expressed as the negative log10 of concentration in mol/L.

Reference set (4 entries):
CC(=O)NC(CO)C(=O)NC(CCCCN)C(=O)NC(CC(C)C)C(=O)NC(CCCNC(=N)N)C(=O)c1nc2ccccc2s1 (centres unmarked); 8.21
CC(=O)N[C@@H](CC(C)C)C(=O)N[C@@H](CC(C)C)C(=O)N[C@@H](CCCNC(=N)N)C(=O)c1nccs1; 7.25
CC(=O)N[C@@H](Cc1ccccc1)C(=O)N[C@@H](CC(C)C)C(=O)N[C@@H](Cc1ccccc1)C(=O)N[C@@H](CCCNC(=N)N)C(=O)c1nc2ccccc2s1; 8.14
CC(=O)N[C@H](Cc1c[nH]c2ccccc12)C(=O)N[C@@H](Cc1ccccc1)C(=O)N[C@@H](CCCNC(=N)N)C(=O)c1nc2ccccc2s1; 8.59

Next, consider the following compound.
Give the observed pIC50 of `CC(=O)N[C@@H](Cc1c[nH]c2ccccc12)C(=O)N[C@@H](Cc1ccccc1)C(=O)N[C@@H](CCCNC(=N)N)C(=O)c1nc2ccccc2s1` for Matriptase (Homo sapiens).
8.24

* * *

- Target Desc: FXa (Homo sapiens)
- Sequence (P00742 235-488 limits assumed): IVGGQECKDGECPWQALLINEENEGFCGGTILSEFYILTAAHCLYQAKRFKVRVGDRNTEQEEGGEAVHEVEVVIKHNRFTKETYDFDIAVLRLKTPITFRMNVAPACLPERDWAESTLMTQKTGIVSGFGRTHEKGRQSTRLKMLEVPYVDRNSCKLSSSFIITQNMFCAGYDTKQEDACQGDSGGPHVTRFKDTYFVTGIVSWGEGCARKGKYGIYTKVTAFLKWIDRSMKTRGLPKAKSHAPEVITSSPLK
- Sequence (P00742 41-179 partner limits assumed): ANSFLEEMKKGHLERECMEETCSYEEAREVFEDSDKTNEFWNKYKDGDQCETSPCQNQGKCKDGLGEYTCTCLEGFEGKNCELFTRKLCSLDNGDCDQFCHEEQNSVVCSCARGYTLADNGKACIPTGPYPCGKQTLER
Counter-ions that a name gives are not always drawn.
Quantity Measured: IC50 (µM)
# value in µM; strip the unit string

Give the observed IC50 of CCOC(=O)c1ccc(OC(=O)CCCCCN=C(N)N)cc1 [Gabexate mesylate] for FXa (Homo sapiens).
1.86

* * *

- Target Desc: Kallikrein 5 (Homo sapiens, UniProt Q9Y337)
- Sequence (Q9Y337 23-293): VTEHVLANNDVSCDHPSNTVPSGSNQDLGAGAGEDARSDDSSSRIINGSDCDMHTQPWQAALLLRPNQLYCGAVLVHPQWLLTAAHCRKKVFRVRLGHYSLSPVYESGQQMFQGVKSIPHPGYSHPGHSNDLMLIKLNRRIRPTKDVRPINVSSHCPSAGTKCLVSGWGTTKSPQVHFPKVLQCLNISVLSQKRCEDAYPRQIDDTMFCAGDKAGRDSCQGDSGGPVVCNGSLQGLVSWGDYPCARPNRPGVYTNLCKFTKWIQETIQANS
Counter-ions that a name gives are not always drawn.
Quantity Measured: IC50 (µM)
# value in µM; strip the unit string

Kindly indicate its recorded IC50. Item: CCOC(=O)c1ccc(OC(=O)CCCCCN=C(N)N)cc1 [Gabexate mesylate]
4.94

* * *

- Target Desc: Kallikrein 12 (Homo sapiens, UniProt Q9UKR0)
- Sequence (Q9UKR0 18-248): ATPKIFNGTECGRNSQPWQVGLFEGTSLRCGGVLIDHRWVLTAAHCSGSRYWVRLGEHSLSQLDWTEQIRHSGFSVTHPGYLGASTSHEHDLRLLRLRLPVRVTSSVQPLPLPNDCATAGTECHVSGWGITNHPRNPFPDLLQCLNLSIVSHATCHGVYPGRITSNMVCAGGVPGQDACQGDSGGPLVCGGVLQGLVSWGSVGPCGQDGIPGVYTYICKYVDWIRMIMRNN
Counter-ions that a name gives are not always drawn.
Quantity Measured: IC50
Please state the number and follow it with the unit.

Kindly indicate its recorded IC50. Item: CCOC(=O)c1ccc(OC(=O)CCCCCN=C(N)N)cc1 [Gabexate mesylate]
94.3 nM

* * *

- Target Desc: Hepsin (Homo sapiens, UniProt P05981)
- Sequence (P05981 whole entry): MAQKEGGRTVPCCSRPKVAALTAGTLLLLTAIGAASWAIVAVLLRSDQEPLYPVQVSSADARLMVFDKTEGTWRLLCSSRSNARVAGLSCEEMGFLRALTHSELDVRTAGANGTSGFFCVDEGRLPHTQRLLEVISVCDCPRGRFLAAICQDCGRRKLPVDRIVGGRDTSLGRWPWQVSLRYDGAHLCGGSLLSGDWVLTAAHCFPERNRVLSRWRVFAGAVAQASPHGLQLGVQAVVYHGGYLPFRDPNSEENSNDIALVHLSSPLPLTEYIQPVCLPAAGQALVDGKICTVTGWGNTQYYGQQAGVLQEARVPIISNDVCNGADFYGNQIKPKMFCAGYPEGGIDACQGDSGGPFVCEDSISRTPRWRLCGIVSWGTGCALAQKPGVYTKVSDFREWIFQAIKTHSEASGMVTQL
Please note: IC50 exactly at 3 nM is rule not met. Only values below 3 nM get rule met.

CC(=O)N[C@@H](CO)C(=O)N[C@@H](CCC(N)=O)C(=O)N[C@@H](CC(C)C)C(=O)N[C@@H](CCCNC(=N)N)C(=O)c1nccs1 [Compound 11, Ac-SQLR-kt]; rule met
N=C(N)c1ccc2cc(OC(=O)c3ccc(N=C(N)N)cc3)ccc2c1 [Nafamostat, reference compound]; rule met
CC(=O)NC(CO)C(=O)NC(CCCCN)C(=O)NC(CC(C)C)C(=O)NC(CCCNC(=N)N)C(=O)c1nc2ccccc2s1 (stereo not drawn) [Compound 3, Ac-SKLR-kbt]; rule met
CC(=O)N[C@@H](Cc1ccccc1)C(=O)N[C@@H](CC(C)C)C(=O)N[C@@H](Cc1ccccc1)C(=O)N[C@@H](CCCNC(=N)N)C(=O)c1nc2ccccc2s1 [Compound 12, Ac-FLFR-kbt]; rule met
CC(=O)N[C@@H](CCCCN)C(=O)N[C@@H](CCC(N)=O)C(=O)N[C@@H](Cc1ccccc1)C(=O)N[C@@H](CCCNC(=N)N)C(=O)c1nccs1 [Compound 10, Ac-KQFR-kt]; rule met

Turning to the following compound.
Dear colleague, could you confirm whether IC50 of CC(=O)N[C@@H](CC(C)C)C(=O)N[C@@H](CC(C)C)C(=O)N[C@@H](CCCNC(=N)N)C(=O)c1nccs1 [Compound 18, Ac-LLR-kt] falls below 3 nM? Thanks.
rule not met
